test: self-splicing fitness, log relative to wild type (ln ratio); higher = more splicing; Tetrahymena group I intron in knt gene, E. coli kanamycin selection, DiMSum; sequences stand for … in CUCUCU…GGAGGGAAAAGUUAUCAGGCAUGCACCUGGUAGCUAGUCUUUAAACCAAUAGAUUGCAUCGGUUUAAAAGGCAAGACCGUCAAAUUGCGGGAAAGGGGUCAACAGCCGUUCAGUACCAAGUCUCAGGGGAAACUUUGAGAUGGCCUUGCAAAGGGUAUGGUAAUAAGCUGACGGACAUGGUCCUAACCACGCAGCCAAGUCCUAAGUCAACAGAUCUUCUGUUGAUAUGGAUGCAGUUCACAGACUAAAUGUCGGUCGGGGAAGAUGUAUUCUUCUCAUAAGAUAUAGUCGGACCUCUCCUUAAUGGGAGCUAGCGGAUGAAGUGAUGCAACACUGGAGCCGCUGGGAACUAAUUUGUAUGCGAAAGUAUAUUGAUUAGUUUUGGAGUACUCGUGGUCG; conditions: 30 °C;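 also: selection with 25 µg/mL kanamycin versus none on LB agar overnight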
So I've got a bunch of sequences here, and I need their self-splicing fitness (ln) values.

Which self-splicing fitness (ln) is listed for ACUAAGCAAUAUUACGGUAG ?
-4.09

Try this sequence next: AGUCAGCAAUAUUACGUGAC
-2.96

Try this sequence next: UGGCAGCAAUAUUACGCGAU
-2.67

Try this sequence next: UUGCAGCAAUAUUACGUUGG
-2.68

Try this sequence next: GACUAGCAAUAUUACGCUUU
-2.59

Try this sequence next: CUGUAGCAAUAUUACGUCAU
-4.07

Try this sequence next: UCAAAGCAAUAUUACGAUAG
-0.853

Try this sequence next: CUCCAGCAAUAUUACGUGAC
-3.38

Try this sequence next: ACCUAGCAAUAUUACGUUCA
-1.4

Try this sequence next: UUUCAGCAAUAUUACGAUUU
-1.34

Try this sequence next: AAGGAGCAAUAUUACGAGAC
-2.03

Try this sequence next: UGGGAGCAAUAUUACGCACG
-3.26

Try this sequence next: UCUAAGCAAUAUUACGUAAG
-0.798

Try this sequence next: AAAUAGCAAUAUUACGUUUG
-2.04

Try this sequence next: UAGCAGCAAUAUUACGGCAA
-0.772

Try this sequence next: GAUAAGCAAUAUUACGGACA
-1.39

###

experiment: self-splicing fitness, log relative to wild type (ln ratio); higher = more splicing; Tetrahymena group I intron in knt gene, E. coli kanamycin selection, DiMSum; sequences stand for … in CUCUCU…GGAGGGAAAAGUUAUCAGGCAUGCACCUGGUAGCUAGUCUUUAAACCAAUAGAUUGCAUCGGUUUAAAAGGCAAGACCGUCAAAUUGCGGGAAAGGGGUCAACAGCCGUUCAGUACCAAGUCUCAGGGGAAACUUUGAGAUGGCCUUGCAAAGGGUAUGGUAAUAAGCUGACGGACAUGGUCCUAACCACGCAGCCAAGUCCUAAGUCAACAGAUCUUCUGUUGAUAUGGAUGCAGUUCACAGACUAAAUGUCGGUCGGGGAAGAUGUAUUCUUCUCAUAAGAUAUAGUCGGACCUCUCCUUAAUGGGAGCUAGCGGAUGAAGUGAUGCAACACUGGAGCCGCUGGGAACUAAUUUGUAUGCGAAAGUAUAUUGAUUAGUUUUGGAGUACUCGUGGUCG; settings: 37 °C
measured metric: self-splicing fitness (ln)
A bare number is all that is needed in reply.

Which self-splicing fitness (ln) is listed for GGAAAGCAAUAUUACGUCAG ?
-2.25

Try this sequence next: GCCGAGCAAUAUUACGCCAU
-2.5

Try this sequence next: CAGAAGCAAUAUUACGGACA
-0.876

Try this sequence next: AGUCAGCAAUAUUACGGCGA
0.00759

Try this sequence next: AGCCAGCAAUAUUACGGGUU
-3.81

Try this sequence next: UAAUAGCAAUAUUACGUGUG
-0.917

Try this sequence next: CGGUAGCAAUAUUACGCCCC
-0.667

Try this sequence next: CCGGAGCAAUAUUACGAGAG
-2.33

Try this sequence next: CCAAAGCAAUAUUACGUCCC
-1.59

Try this sequence next: CGACAGCAAUAUUACGAAAU
-3.06

Try this sequence next: AAAGAGCAAUAUUACGAGCG
-2.17

Try this sequence next: CACGAGCAAUAUUACGGCCC
-2.95

Try this sequence next: CGAUAGCAAUAUUACGGGCG
-0.602

Try this sequence next: GCGUAGCAAUAUUACGGUCA
-0.142

Try this sequence next: CAGAAGCAAUAUUACGACCU
0.0264

Try this sequence next: ACGUAGCAAUAUUACGCGUC
-1.97

###

test: self-splicing fitness, log relative to wild type (ln ratio); higher = more splicing; Tetrahymena group I intron in knt gene, E. coli kanamycin selection, DiMSum; sequences stand for … in CUCUCU…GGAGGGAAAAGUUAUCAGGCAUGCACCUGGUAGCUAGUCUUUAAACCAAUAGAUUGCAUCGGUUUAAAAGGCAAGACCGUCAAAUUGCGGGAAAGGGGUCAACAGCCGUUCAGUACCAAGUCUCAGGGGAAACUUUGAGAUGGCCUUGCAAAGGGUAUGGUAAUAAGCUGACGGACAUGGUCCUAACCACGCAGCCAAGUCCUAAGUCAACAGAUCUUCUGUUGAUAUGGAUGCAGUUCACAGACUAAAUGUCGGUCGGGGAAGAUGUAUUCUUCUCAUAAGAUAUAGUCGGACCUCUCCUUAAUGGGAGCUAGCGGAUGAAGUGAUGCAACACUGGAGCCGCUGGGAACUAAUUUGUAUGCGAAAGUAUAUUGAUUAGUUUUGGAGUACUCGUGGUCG; settings: 37 °C
measured metric: self-splicing fitness (ln)
A bare number is all that is needed in reply.

Which self-splicing fitness (ln) is listed for AAACAGCAAUAUUACGAUAU ?
-0.63

Try this sequence next: GGGUAGCAAUAUUACGAAUA
-0.878

Try this sequence next: AUGCAGCAAUAUUACGAGAG
-1.16

Try this sequence next: CGGAAGCAAUAUUACGGCGG
0.177

Try this sequence next: AGUGAGCAAUAUUACGUCUU
-1.31

Try this sequence next: CUUGAGCAAUAUUACGUACG
-0.683

Try this sequence next: UUCAAGCAAUAUUACGUCUC
-1.74

Try this sequence next: CCGAAGCAAUAUUACGGUGG
-1.35

Try this sequence next: CUCGAGCAAUAUUACGACUG
-0.299

Try this sequence next: AGUCAGCAAUAUUACGUGCA
-0.501

Try this sequence next: AAACAGCAAUAUUACGACAG
-1.25

Try this sequence next: UGUAAGCAAUAUUACGUUGU
-2.98

Try this sequence next: UGAUAGCAAUAUUACGAUCC
0.433

Try this sequence next: AGGUAGCAAUAUUACGGUUA
-0.509

Try this sequence next: AAGCAGCAAUAUUACGUGUC
-2.01

Try this sequence next: UGGUAGCAAUAUUACGACUC
-0.807

Try this sequence next: UAGUAGCAAUAUUACGGGUU
-2.66

Try this sequence next: UCUAAGCAAUAUUACGGCGC
-1.43

Try this sequence next: ACCCAGCAAUAUUACGAUUU
0.0888

Try this sequence next: UCAGAGCAAUAUUACGACGC
-1.69

Try this sequence next: AGUCAGCAAUAUUACGACGA
-0.283

Try this sequence next: CUUUAGCAAUAUUACGAAAG
-1.7

Try this sequence next: GUCAAGCAAUAUUACGAAAU
-0.595

Try this sequence next: UCGUAGCAAUAUUACGCGUA
-0.895

Try this sequence next: AGCAAGCAAUAUUACGAUGA
-0.569

Try this sequence next: GAUUAGCAAUAUUACGCGCG
-0.745

Try this sequence next: GUCGAGCAAUAUUACGCCGG
-1.99

Try this sequence next: AACGAGCAAUAUUACGUUAA
-2.2

Try this sequence next: AAUUAGCAAUAUUACGUUUG
-2.9

Try this sequence next: ACAUAGCAAUAUUACGGCUA
-0.391

Try this sequence next: UCGGAGCAAUAUUACGCAGA
-2.13

Try this sequence next: UCGAAGCAAUAUUACGCCGG
-2.18

Try this sequence next: AGACAGCAAUAUUACGCGAC
-1.99

Try this sequence next: GCGCAGCAAUAUUACGGAAA
-0.698

Try this sequence next: GUAUAGCAAUAUUACGAGGU
-0.619

Try this sequence next: GCGUAGCAAUAUUACGCGGC
-2.08

Try this sequence next: AAACAGCAAUAUUACGUAAU
-0.491

Try this sequence next: CAGUAGCAAUAUUACGUGCA
-2.45

Try this sequence next: GACUAGCAAUAUUACGGUUA
0.109

Try this sequence next: GCACAGCAAUAUUACGUUGC
-2.57

Try this sequence next: CGCUAGCAAUAUUACGUUGA
-2.38

Try this sequence next: CCGUAGCAAUAUUACGGGUA
-2.67

Try this sequence next: UUUAAGCAAUAUUACGAUUA
-0.207

Try this sequence next: CGAGAGCAAUAUUACGUUCU
-2.83

Try this sequence next: UCUCAGCAAUAUUACGAAAU
-2.86

Try this sequence next: AUUUAGCAAUAUUACGGUAA
-1.54

Try this sequence next: CAUCAGCAAUAUUACGCAUG
-2.23

Try this sequence next: CUCCAGCAAUAUUACGCCUA
-1.94

Try this sequence next: ACCGAGCAAUAUUACGUGAU
-2.06

Try this sequence next: GACAAGCAAUAUUACGCCGA
-0.179

Try this sequence next: ACUUAGCAAUAUUACGCCAU
-2.52

Try this sequence next: UGCAAGCAAUAUUACGCUCU
-0.235

Try this sequence next: CACCAGCAAUAUUACGGAAA
-2.03

Try this sequence next: CCCAAGCAAUAUUACGCUUA
-2.78

Try this sequence next: UACCAGCAAUAUUACGGCGA
0.254

Try this sequence next: CUGAAGCAAUAUUACGUGCC
-1.64

Try this sequence next: AGAAAGCAAUAUUACGCGAC
-1.65

Try this sequence next: UGAAAGCAAUAUUACGGCAU
-0.236

Try this sequence next: UACUAGCAAUAUUACGGCCU
-0.333

Try this sequence next: UCCGAGCAAUAUUACGUGUG
-0.996

Try this sequence next: UGAUAGCAAUAUUACGUCGU
-2.02

Try this sequence next: ACACAGCAAUAUUACGAUGG
-0.66

Try this sequence next: CUCAAGCAAUAUUACGGUCG
-1.19

Try this sequence next: CUGCAGCAAUAUUACGUUAA
-3.02

Try this sequence next: GAUUAGCAAUAUUACGGUAG
-1.21

Try this sequence next: UUGUAGCAAUAUUACGGGAU
-2.78

Try this sequence next: CUAUAGCAAUAUUACGCCUU
-2.27
